target-under-test: T1, rat NGF (rat, UniProt P25427 122-241)
T1 construct: also called rN
T1 sequence (P25427 122-241 limits assumed): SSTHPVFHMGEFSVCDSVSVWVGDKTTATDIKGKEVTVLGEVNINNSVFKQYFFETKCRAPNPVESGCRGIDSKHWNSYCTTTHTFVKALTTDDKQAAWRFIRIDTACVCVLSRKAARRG
test-summary: SPR (Biacore T200), 100 nM mAb on NGF chip, similarity to parent mAb
Source text: The region of an antibody responsible for antigen recognition represents the paratope. A paratope is created by a combination of amino acids in the complementarity determining regions (CDRs) of both the heavy and light chain variable regions. The binding between antibody and antigen is often mediated by side chains of CDR residues with side chains or carbohydrate moieties of the antigen. […]
measured-property: Percent Similarity Score (KD on rN)

| binder | result |
| --- | --- |
| can48L2VL_I29A (antibody, V domains shown, CDR scanning mutant of ZTS-842 (48L2)) VH: EVQLVESGGDLVKPGGSLRLSCVASGFTFSTYGINWVRQAPGKGLQWVAYISSGGSSTYYADPVKGRFTISRDDAKNMLYLQMNSLRAEDTAIYYCAGSRYTYAYGGGYEFHFWGQGTLVTVSS VL: QAVLNQPASVSGALGQKVTISCSGSTMDADIFGVSWYQQLPGKAPKLLVDSDGDRPSGIPDRFSGSRSGNSGTLTITGLQAEDEADYHCQSGDSTLGALAIFGGGTHVTVL | 57.2% |
| can9L12VH_W104A (antibody, V domains shown) VH: EVQLVESGGDLVKPGGSLRLSCVASGFTFSSHGMHWVRQSPGKGLQWVAVINSGGSSTYYTDAVKGRFTISRDNAKNTVYLQMNSLRAEDTAMYYCAKESVGGAEQLVGPHFDYWGQGTLVIVSS VL: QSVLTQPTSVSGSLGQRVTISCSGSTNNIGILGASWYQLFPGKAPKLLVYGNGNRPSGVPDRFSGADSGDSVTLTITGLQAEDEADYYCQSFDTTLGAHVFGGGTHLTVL | 8.2% |
| can9L12VH_S100A (antibody, V domains shown) VH: EVQLVESGGDLVKPGGSLRLSCVASGFTFSSHGMHWVRQSPGKGLQWVAVINSGGSSTYYTDAVKGRFTISRDNAKNTVYLQMNSLRAEDTAMYYCAKEAVGGWEQLVGPHFDYWGQGTLVIVSS VL: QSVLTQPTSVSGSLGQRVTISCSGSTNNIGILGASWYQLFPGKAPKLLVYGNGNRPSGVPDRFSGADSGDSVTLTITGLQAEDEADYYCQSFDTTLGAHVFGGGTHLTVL | 51.6% |
| can9L12VH_S56A (antibody, V domains shown) VH: EVQLVESGGDLVKPGGSLRLSCVASGFTFSSHGMHWVRQSPGKGLQWVAVINSGGASTYYTDAVKGRFTISRDNAKNTVYLQMNSLRAEDTAMYYCAKESVGGWEQLVGPHFDYWGQGTLVIVSS VL: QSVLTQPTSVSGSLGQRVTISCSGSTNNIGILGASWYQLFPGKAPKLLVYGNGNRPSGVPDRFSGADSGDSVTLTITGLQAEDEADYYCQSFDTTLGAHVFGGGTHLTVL | 96% |
| can9L12VL_V100A (antibody, V domains shown) VH: EVQLVESGGDLVKPGGSLRLSCVASGFTFSSHGMHWVRQSPGKGLQWVAVINSGGSSTYYTDAVKGRFTISRDNAKNTVYLQMNSLRAEDTAMYYCAKESVGGWEQLVGPHFDYWGQGTLVIVSS VL: QSVLTQPTSVSGSLGQRVTISCSGSTNNIGILGASWYQLFPGKAPKLLVYGNGNRPSGVPDRFSGADSGDSVTLTITGLQAEDEADYYCQSFDTTLGAHAFGGGTHLTVL | 20.2% |
